Data provenance is ChEMBL document CHEMBL2396607.

assayed.system: Phosphatidylinositol 4,5-bisphosphate 3-kinase catalytic subunit alpha isoform (Homo sapiens, UniProt P42336)
Sequence (P42336 whole entry, canonical isoform): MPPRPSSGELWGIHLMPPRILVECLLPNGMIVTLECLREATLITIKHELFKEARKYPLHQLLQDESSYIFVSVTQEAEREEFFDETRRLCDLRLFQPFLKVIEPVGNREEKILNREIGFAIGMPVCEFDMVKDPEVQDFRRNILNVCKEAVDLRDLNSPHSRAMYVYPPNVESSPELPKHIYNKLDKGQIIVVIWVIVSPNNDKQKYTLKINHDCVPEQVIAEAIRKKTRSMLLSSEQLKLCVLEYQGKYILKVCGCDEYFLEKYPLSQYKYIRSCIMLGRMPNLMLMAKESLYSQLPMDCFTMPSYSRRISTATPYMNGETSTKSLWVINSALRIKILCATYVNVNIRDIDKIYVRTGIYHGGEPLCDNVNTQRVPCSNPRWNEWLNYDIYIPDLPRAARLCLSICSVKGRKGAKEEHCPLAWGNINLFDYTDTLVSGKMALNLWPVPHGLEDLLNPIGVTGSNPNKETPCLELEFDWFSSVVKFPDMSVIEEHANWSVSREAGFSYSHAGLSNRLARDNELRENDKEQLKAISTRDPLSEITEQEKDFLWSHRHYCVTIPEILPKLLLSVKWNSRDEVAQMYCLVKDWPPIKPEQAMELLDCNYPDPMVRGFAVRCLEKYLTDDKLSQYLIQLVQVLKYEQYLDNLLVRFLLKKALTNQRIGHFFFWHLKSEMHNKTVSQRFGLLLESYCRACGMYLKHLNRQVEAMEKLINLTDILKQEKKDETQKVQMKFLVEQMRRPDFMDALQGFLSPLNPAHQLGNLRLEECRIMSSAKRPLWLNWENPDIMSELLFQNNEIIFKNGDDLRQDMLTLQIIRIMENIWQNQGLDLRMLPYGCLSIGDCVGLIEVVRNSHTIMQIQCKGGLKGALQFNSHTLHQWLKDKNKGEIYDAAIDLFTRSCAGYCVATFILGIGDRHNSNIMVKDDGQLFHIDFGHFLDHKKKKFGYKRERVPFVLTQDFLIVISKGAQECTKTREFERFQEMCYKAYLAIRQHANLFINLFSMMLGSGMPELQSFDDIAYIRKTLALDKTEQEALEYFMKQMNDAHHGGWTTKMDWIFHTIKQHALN
test.method.notes: Inhibition of N-terminal myristoylated P110alpha (unknown origin)-mediated AKT phosphorylation at Ser473 expressed in rat Rat1 cells by ELISA
Assay type: cell-based
reported.metric: IC50 (nM)

Take a look at these entries with their results.
>>> print(df.to_string())
                           structure_string  reported_metric  scale_unit  readout_number
0  Cc1nc(NC(=O)N2CCC[C@H]2C(N)=O)sc1-c1cc(C(C)C)ncn1             IC50          nM            4600
1  CC(C)(c1cc(-c2sc(NC(=O)N3CCC[C@H]3C(N)=O)nc2Cl)ccn1)C(F)(F)F             IC50          nM             340
2  Cc1nc(NC(=O)N2CCC[C@H]2C(N)=O)sc1-c1ccc(-n2cccn2)cc1             IC50          nM             130

P = Cc1nc(NC(=O)N2CCC[C@H]2C(N)=O)sc1-c1ccnc(C2CCC2)n1
Q = CC(C)(c1cc(-c2cnc(NC(=O)N3CCC[C@H]3C(N)=O)s2)ccn1)C(F)(F)F
R = Cc1nc(NC(=O)N2CC[C@H]2C(N)=O)sc1-c1ccnc(C(C)(C)C)n1
S = Cc1nc(NC(=O)N2CCCC2)sc1-c1ccnc(C(C)(C)C)c1
T = Cc1nc(NC(=O)N2CCC[C@H]2C(N)=O)sc1-c1ccnc(C2(C#N)CC2)c1
Sort (5 compounds) by IC50: min first. Provide your answer as the labels ordered per the instruction.
Q, R, P, T, S

A = Cc1nc(NC(=O)N2CCC[C@H]2C(N)=O)sc1-c1ccnc(C(C)C)n1
B = CCN(CC)c1nccc(-c2sc(NC(=O)N3CCC[C@H]3C(N)=O)nc2C)n1
Which has the higher IC50, A or B ? Choose, then provide that item's label.
B
(B: 170 nM, A: 100 nM)
